system: Mycobacterium tuberculosis; assay: Antitubercular activity against Mycobacterium tuberculosis H37Rv by broth dilution method; assay type: functional
Overview of reported MIC90 across a group of compounds:

- compound: "CCOC(=O)/C(CCc1ccccc1)=N\\NC(=O)c1ccncc1"
  MIC90, µg/mL: 0.1
- compound: "O=C(N/N=C/c1ccc(F)c(F)c1)c1ccncc1"
  MIC90, µg/mL: 1.56
- compound: "CC(C)=CCC/C(C)=C/C=N/NC(=O)c1ccncc1"
  MIC90, µg/mL: 0.1
- compound: "CC(C)=NNC(=O)c1ccncc1"
  MIC90, µg/mL: 0.1
- compound: "O=C(N/N=C/c1ccc(I)cc1)c1ccncc1"
  MIC90, µg/mL: 0.2
- compound: "O=C(N/N=C/c1ccccc1Cl)c1ccncc1"
  MIC90, µg/mL: 0.78
- compound: "CCOC(=O)C/C(Cc1ccccc1)=N/NC(=O)c1ccncc1"
  MIC90, µg/mL: 0.1

Reference source: ChEMBL document CHEMBL1154084
